System under test: human PAI-1 (Homo sapiens, UniProt P05121)
Sequence (P05121 24-402): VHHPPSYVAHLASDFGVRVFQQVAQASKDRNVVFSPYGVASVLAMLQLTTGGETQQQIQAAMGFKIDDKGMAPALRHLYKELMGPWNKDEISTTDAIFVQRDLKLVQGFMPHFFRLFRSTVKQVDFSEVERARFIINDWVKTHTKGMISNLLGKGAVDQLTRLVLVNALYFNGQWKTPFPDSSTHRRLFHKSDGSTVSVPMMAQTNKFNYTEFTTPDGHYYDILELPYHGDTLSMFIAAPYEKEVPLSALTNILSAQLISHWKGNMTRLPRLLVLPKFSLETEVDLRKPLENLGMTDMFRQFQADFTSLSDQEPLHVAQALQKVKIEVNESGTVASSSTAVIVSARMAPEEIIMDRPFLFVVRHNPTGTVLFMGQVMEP
Assay info: Measurement of PAI-1 inhibitory activity of compound group 1 (t-PA, Spectrozyme t-PA chromogenic substrate)
Cond: read-out: PAI-1 activity %
Where a name gives a salt, the structure may show the parent alone.
Would you mind labelling by activity at 2.5 µM? At or over 80% is rule met, under is rule not met.

Sample answers from the record:
O=C(O)c1cc(Cl)ccc1NC(=O)C1(c2cccc(-c3ccoc3)c2)CC1 : rule met
CC(C)(C)c1cccc(OCC(=O)Nc2ccc(Cl)cc2C(=O)O)c1 : rule not met
O=C(/C=C/c1ccc(-c2ccccc2)cc1)Nc1ccc(Cl)cc1C(=O)O : rule not met
O=C(COc1cccc(-c2ccoc2)c1)Nc1ccc(-c2ccccc2)cc1C(=O)O : rule not met

Task item: Has O=C(Nc1ccc(Cl)cc1C(=O)O)c1ccc(-n2cccc2)cc1 [Salt of Known compound (7), hydrochloride, reference compound] a recorded activity at 2.5 µM greater than or equal to 80%?
Reply: rule met

Task item: Has O=C(Nc1ccc(Cl)cc1C(=O)O)c1cccc(C23CC4CC(CC(C4)C2)C3)c1 a recorded activity at 2.5 µM greater than or equal to 80%?
Reply: rule not met

Task item: Has O=C(Nc1ccc(Cl)cc1C(=O)O)c1ccc(C#CC2CCCCC2)cc1 a recorded activity at 2.5 µM greater than or equal to 80%?
Reply: rule not met

Task item: Has O=C(/C=C/c1cccc(C2=CCCCC2)c1)Nc1ccc(Cl)cc1C(=O)O a recorded activity at 2.5 µM greater than or equal to 80%?
Reply: rule not met

Task item: Has O=C(Nc1ccc(Cl)cc1C(=O)O)c1ccc(Oc2ccccc2)cc1 a recorded activity at 2.5 µM greater than or equal to 80%?
Reply: rule met
